From: PubChem BioAssay AID588689

Biological target: Genome polyprotein (Dengue virus type 2 (strain 16681-PDK53)) (UniProt P29991)
Test: flavivirus cap methylation enzyme inhibition – biochemical, confirmation dose response, primary screen (AID 588689)
Conditions: Dengue-2 NS5 methyltransferase capping enzyme assay, at 25 µM, active compounds read high
Out of some 340,000 compounds screened, about 1,000 (0.29%) were called active. A selection follows. Entries with a potency or affinity are not part of this list.
Exercise: for every item that follows, state its recorded inhibition.

Query :: Fill in reported inhibition for this entry: COc1ccc(C(=O)c2c(C(F)(F)F)oc3c2C(=O)c2ccccc2C3=O)cc1
Result :: 9.03% (inactive)

Query :: Fill in reported inhibition for this entry: Cc1[nH][nH]c(=O)c1C(c1ccc(O)c([N+](=O)[O-])c1)c1c(C)[nH][nH]c1=O
Result :: 5.19% (inactive)

Query :: Fill in reported inhibition for this entry: CN(C(=O)c1ccc(NC(=O)Cc2ccc(NC(=O)C3CCCN(C(=O)C4CCC4)C3)cc2)cc1)C1CC1 (stereo not drawn)
Result :: -5.79% (inactive)

Query :: Fill in reported inhibition for this entry: Cc1nc(SCC(=O)NC(C)(C)C)c2c(-c3cccs3)csc2n1
Result :: -9.82% (inactive)

Query :: Fill in reported inhibition for this entry: O=C(CN(C(=O)Cn1nnc(-c2ccc(F)cc2)n1)c1ccc(F)cc1)NC1CCCC1
Result :: -4.85% (inactive)

Query :: Fill in reported inhibition for this entry: CC(C)N(O)C(=O)NC(C)(C)C
Result :: 0% (inactive)

Query :: Fill in reported inhibition for this entry: COc1ccc(C(=O)c2coc(-c3ccccc3C(=O)O)c2C(=O)O)cc1
Result :: 2.56% (inactive)

Query :: Fill in reported inhibition for this entry: O=C(c1ccccc1)c1coc2c1C(=O)c1ccccc1C2=O
Result :: 6.1% (inactive)

###

Exercise: for every item that follows, state its recorded inhibition.
Target: Genome polyprotein (Dengue virus type 2 (strain 16681-PDK53))
Assay: flavivirus cap methylation enzyme inhibition – biochemical, confirmation dose response, primary screen (AID 588689)
Details: Dengue-2 NS5 methyltransferase capping enzyme assay, at 25 µM, active compounds read high
The whole screen tested about 340,000 compounds, of which about 1,000 (0.29%) were called active. Only a sample is shown. Measured potencies and affinities stand elsewhere.
Give the number; % is assumed, so skip it.

Query :: Lab note: record inhibition of Cc1cc2ncn(C3CC(O)C(CO)O3)c2cc1C (stereo not drawn) tested on Genome polyprotein (Dengue virus type 2 (strain 16681-PDK53)).
Result :: 2.33

Query :: Lab note: record inhibition of O=c1cc(Cl)[nH]c(=O)n1Cc1ccc(F)cc1 tested on Genome polyprotein (Dengue virus type 2 (strain 16681-PDK53)).
Result :: -9.54

Query :: Lab note: record inhibition of CN(CC(=O)Nc1cccc(F)c1)CC(=O)N1CCCCC1 tested on Genome polyprotein (Dengue virus type 2 (strain 16681-PDK53)).
Result :: 6.98

Query :: Lab note: record inhibition of CC(C)c1cccc(-c2ccc3c(c2)S(=O)(=O)c2cccc(C(=O)NC4CCCC4)c2C3=O)c1 tested on Genome polyprotein (Dengue virus type 2 (strain 16681-PDK53)).
Result :: -4.92

Query :: Lab note: record inhibition of c1ccc(NN=C2c3ccccc3-c3ccccc32)cc1 tested on Genome polyprotein (Dengue virus type 2 (strain 16681-PDK53)).
Result :: -1.94

Query :: Lab note: record inhibition of CC(C)CCN1CN(S(=O)(=O)c2cccs2)c2nc3ccccc3nc21 tested on Genome polyprotein (Dengue virus type 2 (strain 16681-PDK53)).
Result :: -2.77

Query :: Lab note: record inhibition of CCn1c(O)c(C=Nc2ccccc2)oc1=S tested on Genome polyprotein (Dengue virus type 2 (strain 16681-PDK53)).
Result :: -8.34

Query :: Lab note: record inhibition of O=C(CSc1nncn1-c1ccccc1)N1CCCC1 tested on Genome polyprotein (Dengue virus type 2 (strain 16681-PDK53)).
Result :: -4.17

Query :: Lab note: record inhibition of COc1cc(C(C2C(=O)CC(C)(C)CC2=O)C2C(=O)CC(C)(C)CC2=O)ccc1OC(C)=O tested on Genome polyprotein (Dengue virus type 2 (strain 16681-PDK53)).
Result :: -2.35

Query :: Lab note: record inhibition of CC1(C)CC(=O)C(C(c2ccccc2F)C2C(=O)CC(C)(C)CC2=O)C(=O)C1 tested on Genome polyprotein (Dengue virus type 2 (strain 16681-PDK53)).
Result :: 22.6

Query :: Lab note: record inhibition of Cc1cc(N)n(-c2ccc(Cl)cc2)n1 tested on Genome polyprotein (Dengue virus type 2 (strain 16681-PDK53)).
Result :: -6.66

Query :: Lab note: record inhibition of CCCCSC1=N/C(=C/c2ccsc2)C(=O)N1c1ccccc1 tested on Genome polyprotein (Dengue virus type 2 (strain 16681-PDK53)).
Result :: -1.97

Query :: Lab note: record inhibition of COc1cc(C=C2C(=O)c3ccccc3C2=O)ccc1O tested on Genome polyprotein (Dengue virus type 2 (strain 16681-PDK53)).
Result :: 25.4

###

Exercise: for every item that follows, state its recorded inhibition.
Target: Genome polyprotein (Dengue virus type 2 (strain 16681-PDK53)) (UniProt P29991)
Experiment: flavivirus cap methylation enzyme inhibition – biochemical, confirmation dose response, primary screen (AID 588689)
Conditions: Dengue-2 NS5 methyltransferase capping enzyme assay, at 25 µM, active compounds read high
Among all 340,000 compounds or so, about 1,000 (0.29%) were called active. A selection follows. Entries with a potency or affinity are not part of this list.
Give the number; % is assumed, so skip it.

Query :: Fill in reported inhibition for this entry: Cc1ccc(C)n1N1C(=O)/C(=C\c2ccc(Cl)cc2)SC1=S
Result :: 6.92

Query :: Fill in reported inhibition for this entry: Cc1[nH]c(C)c(S(=O)(=O)N(Cc2ccccc2)C(C)C)c1C(=O)N1CCCC1
Result :: -0.98

Query :: Fill in reported inhibition for this entry: CCOC(=O)N1CCN(S(=O)(=O)N2CCCC(C(=O)NCc3ccccc3Cl)C2)CC1 (stereo not drawn)
Result :: -6.21

###

Target: Genome polyprotein (Dengue virus type 2 (strain 16681-PDK53)) (UniProt P29991)
Test: flavivirus cap methylation enzyme inhibition – biochemical, confirmation dose response, primary screen (AID 588689)
Settings: Dengue-2 NS5 methyltransferase capping enzyme assay, at 25 µM, active compounds read high
Out of some 340,000 compounds screened, about 1,000 (0.29%) were called active. Only a sample is shown. Potency and affinity values are given separately.
experimental readout: inhibition (%)
Give the number; % is assumed, so skip it.

Query :: Fill in reported inhibition for this entry: CC(C)c1ccc(S(=O)(=O)N2CCN(C(=O)CCNS(=O)(=O)c3ccccc3F)CC2)cc1
Result :: 2.2

Query :: Fill in reported inhibition for this entry: O=C1CCc2nc3ccccc3c(=O)n2N1
Result :: -1.38

Query :: Fill in reported inhibition for this entry: COc1cccc2c1-c1c(O)cccc1C2=O
Result :: 9.88

Query :: Fill in reported inhibition for this entry: Cc1cccc(NC(=O)N(Cc2nc3ccccc3c(=O)[nH]2)C2CCCC2)c1
Result :: -1.56

Query :: Fill in reported inhibition for this entry: Cc1nnc(NC(=O)c2ccc3c(c2)OCO3)s1
Result :: 8.19

Query :: Fill in reported inhibition for this entry: CCCn1nc([N+](=O)[O-])c(C(C#N)c2nc3ccccc3s2)c(Cl)c1=O (stereo not given)
Result :: 27.6

Query :: Fill in reported inhibition for this entry: CCOCCSc1n[nH]c(=O)n1CCc1ccccc1
Result :: 0.65

Query :: Fill in reported inhibition for this entry: N#CC(c1ccccn1)c1ncc(C(F)(F)F)cc1Cl (stereo not given)
Result :: -2.95

Query :: Fill in reported inhibition for this entry: CCCCn1c(N)c(-c2nc3ccccc3s2)c2c([N+](=O)[O-])nn(CC)c(=O)c21
Result :: -3.23

Query :: Fill in reported inhibition for this entry: CCCCCn1c(N)c(-c2nc3ccccc3s2)c2c([N+](=O)[O-])nn(CC)c(=O)c21
Result :: -4.79

Query :: Fill in reported inhibition for this entry: O=[N+]([O-])c1ccc(CC(Cl)c2ccccn2)cc1 (stereo not given)
Result :: 0.78

Query :: Fill in reported inhibition for this entry: Fc1cnc(N2CCc3ccccc32)nc1N1CCc2ccccc21
Result :: -0.68

Query :: Fill in reported inhibition for this entry: CCCCn1c(N)c(-c2nc3ccccc3o2)c2c([N+](=O)[O-])nn(CC)c(=O)c21
Result :: -0.74

Query :: Fill in reported inhibition for this entry: Cc1nc([N+](=O)[O-])c(Sc2nc3ccccc3n2C)n1Cc1ccccc1
Result :: 11.5

Query :: Fill in reported inhibition for this entry: Cc1cccc(COCC(Cc2ccccc2)N2CCN(C(=O)c3cccc(C)c3)CCC2=O)c1 (stereo not given)
Result :: -1.6

###

Molecular target: Genome polyprotein (Dengue virus type 2 (strain 16681-PDK53)) (UniProt P29991)
Assay: flavivirus cap methylation enzyme inhibition – biochemical, confirmation dose response, primary screen (AID 588689)
Details: Dengue-2 NS5 methyltransferase capping enzyme assay, at 25 µM, active compounds read high
About 1,000 (0.29%) of roughly 340,000 compounds were called active. The list is a sample of the results. Potency and affinity values are given separately.
Exercise: for every item that follows, state its recorded inhibition.
Give the number; % is assumed, so skip it.

Query :: Fill in reported inhibition for this entry: CCOC(=O)CSc1nc2c(sc(=S)n2-c2ccc(OCC)cc2)c(=O)[nH]1
Result :: 0

Query :: Fill in reported inhibition for this entry: CSC[C@H](NC(=O)Cc1c(C)c2cc3c(C)c(C)oc3cc2oc1=O)C(=O)N[C@@H](Cc1ccccc1)C(=O)O
Result :: 1.4

Query :: Fill in reported inhibition for this entry: CCCC(NC(=O)Cc1c(C)c2cc3c(C)c(C)oc3c(C)c2oc1=O)C(=O)N[C@@H](Cc1ccccc1)C(=O)O (some centres undefined)
Result :: 1.45

Query :: Fill in reported inhibition for this entry: Cc1[nH]c(C)c(S(=O)(=O)N2CCN(c3cccc(Cl)c3)CC2)c1C(=O)N1CCCCC1
Result :: -6.81
